Attribution: ChEMBL document CHEMBL1159093

Recorded fraction unbound values for a group of molecules are listed next.
experiment: Protein binding in rat plasma; format: ADME, cell-free; settings: read-out: PPB (converted)

molecule	readout-relation	fraction unbound
CCCc1nc(-c2ccccc2)oc1C(=O)NC(C)CN1CCN(c2ncccn2)CC1 (configuration not stated)	<	0.01
CC(=O)N1CCN(C[C@@H](C)NC(=O)c2cc3c(-c4ccccc4)nn(C)c3s2)CC1	=	0.11

====

molecules and their reported IC50
biological target: P2X purinoceptor 1 (Homo sapiens, UniProt P51575); assay: Antagonist activity at P2X1 receptor
Sequence (P51575 whole entry): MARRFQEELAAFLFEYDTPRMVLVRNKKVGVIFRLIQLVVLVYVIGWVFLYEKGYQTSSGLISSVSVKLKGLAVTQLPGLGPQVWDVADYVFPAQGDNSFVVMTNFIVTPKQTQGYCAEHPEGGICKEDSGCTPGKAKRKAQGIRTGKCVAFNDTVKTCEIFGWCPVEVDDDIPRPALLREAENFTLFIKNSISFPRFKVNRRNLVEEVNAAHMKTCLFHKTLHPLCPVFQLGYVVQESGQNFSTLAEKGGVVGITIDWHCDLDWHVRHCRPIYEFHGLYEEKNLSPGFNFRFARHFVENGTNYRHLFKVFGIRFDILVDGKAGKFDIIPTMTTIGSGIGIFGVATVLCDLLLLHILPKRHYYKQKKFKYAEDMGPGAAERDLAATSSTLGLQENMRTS
parameter-measured: IC50

molecule	obs-value
CC(=O)N1CCN(C[C@@H](C)NC(=O)c2cc3c(-c4ccccc4)nn(C)c3s2)CC1	> 10 µM
CCCc1nc(-c2ccccc2)oc1C(=O)NC(C)CN1CCN(c2ncccn2)CC1 (configuration not stated)	> 10 µM
